System: UACC-257 melanoma
assay_info: NCI-60 one-dose screen, 48 h (100 = growth as untreated, 0 = no growth, -100 = all killed)
measurement_conditions: 10 µM unless noted
About 83,000 compounds went through this panel and 20% of them were active in at least one assay; those are over-represented in the sample as a whole.
1 if growth is below 70%. 0 if not; exact matches included in 0.

As a guide, the following entries are already answered.
1) COc1ccc(C2CC(c3ccccc3)=NN2C(=O)c2cc(OC)c(OC)c(OC)c2)cc1O (configuration not stated) ... 1
2) COc1ccc(N/N=C/c2cn(-c3ccc(C(=O)O)cc3)nc2-c2cc3ccccc3oc2=O)cc1 ... 0
3) N#CC1=C(N)Oc2c(sc3c(F)cccc23)C1c1ccc([N+](=O)[O-])cc1 (configuration not stated) ... 1
4) COC(=O)/C=C1/SC(=NCc2ccccc2)N(CCc2c[nH]c3ccccc23)C1=O ... 0
5) COc1ccc(OC)c(Nc2nnc(-c3cc(OC)c(OC)c(OC)c3)o2)c1 ... 0
6) COc1cc2ncnc(Nc3ccc(S(=O)(=O)Nc4nccs4)cc3)c2cc1OCCCN1CCCC1 ... 0
7) CN(C)c1ccc(CNCCO)cc1 ... 0
8) CCn1cc(C(=O)O)c(=O)c2cc(F)c(N3CCN(CC(=O)Nc4ccccc4)C(C)C3)c(F)c21 (configuration not stated) ... 0

API: query returns whether the molecule falls strictly under 70% in growth. Query: CN(C)c1ccc([C@@H](C(=O)Nc2cccc([N+](=O)[O-])c2)N(C(=O)c2cc3ccccc3[nH]2)c2cccc([N+](=O)[O-])c2)cc1 0

API: query returns whether the molecule falls strictly under 70% in growth. Query: O=Nc1ccc(NC(=O)Nc2ccc([N+](=O)[O-])cc2)cc1 0

API: query returns whether the molecule falls strictly under 70% in growth. Query: CN(C)CCCn1c2c(c3ccncc3c1=O)C(=O)c1ccccc1-2 1

API: query returns whether the molecule falls strictly under 70% in growth. Query: CCOc1ccc(NC(=O)Nc2ccc(OCC)cc2)cc1 0

API: query returns whether the molecule falls strictly under 70% in growth. Query: C/C(=C(\c1ccc(OCCN2CCCCCC2)cc1)c1ccc(OC(=O)c2ccccc2)cc1)c1ccc(Cl)cc1 1

API: query returns whether the molecule falls strictly under 70% in growth. Query: Cc1ccc2c(c1)=C/C(=C\c1cc(-c3ccccc3)[nH]c1O)C(=O)N=2 1

====

Tested on: NCI-H23 lung
assay_info: NCI-60 one-dose screen, 48 h
measurement_conditions: 10 µM unless noted
The panel holds about 83,000 compounds, 20% with a hit somewhere; the sample as a whole holds those more often. The source made the active and inactive calls. The calls were made as follows: active = growth percent below 10; inactive = the rest.
Write down one outcome, taken from t = active, f = inactive

As a guide, the following entries are already answered.
1. COc1ccc2[nH]cc(-c3nonc3-c3c[nH]c4ccc(Br)cc34)c2c1 ... f
2. N#Cc1c(-c2ccc(Cl)cc2)nc(NN=Cc2ccc[nH]2)nc1N1CCOCC1 ... f

Moving on to another compound below.
Record request — test call for CCN(CC)CCOc1ccc2ccc(=O)oc2c1 f

====

Test system: NCI-H322M lung
assay_info: NCI-60 one-dose screen, 48 h (100 = growth as untreated, 0 = no growth, -100 = all killed)
measurement_conditions: 10 µM unless noted
Compounds without any hit were thinned out: in the full panel of roughly 83,000, 20% have a hit.
t if growth is below 60%. f if not; exact matches included in f.

As a guide, the following entries are already answered.
1. C=C1C(=O)O[C@H]2[C@H]1CC/C(CNC(=O)Cc1c[nH]c3ccccc13)=C\CC[C@@]1(C)O[C@@H]21 ... f
2. COc1ccc(C2CC(c3ccccc3)=NN2C(=O)c2cc(OC)c(OC)c(OC)c2)cc1O (stereo not given) ... t
3. CCCCCCCCCCCCCCCCCCOc1ccccc1CC(=O)NCC[N+](C)(C)C ... f

API: query returns whether the compound falls strictly under 60% in growth. Query: COc1ccc2cc(-c3nc4ccc(C)cn4c3NCc3ccco3)c(=O)[nH]c2c1 f

API: query returns whether the compound falls strictly under 60% in growth. Query: O=C1c2cccnc2C(=O)c2c1c(C(=O)OCCc1ccccn1)c1ccccn21 t

API: query returns whether the compound falls strictly under 60% in growth. Query: C=C(C)[C@@H]1CC[C@]2(CO)CC[C@]3(C)[C@H](CC[C@@H]4[C@@](C)(CCCN)[C@H](C(=C)C)CC[C@]43C)[C@@H]12 t

Just for reference, PubChem BioAssay (NCI) is where these values come from.
